assay: self-splicing fitness, log relative to wild type (ln ratio); higher = more splicing; Tetrahymena group I intron in knt gene, E. coli kanamycin selection, DiMSum; sequences stand for … in CUCUCU…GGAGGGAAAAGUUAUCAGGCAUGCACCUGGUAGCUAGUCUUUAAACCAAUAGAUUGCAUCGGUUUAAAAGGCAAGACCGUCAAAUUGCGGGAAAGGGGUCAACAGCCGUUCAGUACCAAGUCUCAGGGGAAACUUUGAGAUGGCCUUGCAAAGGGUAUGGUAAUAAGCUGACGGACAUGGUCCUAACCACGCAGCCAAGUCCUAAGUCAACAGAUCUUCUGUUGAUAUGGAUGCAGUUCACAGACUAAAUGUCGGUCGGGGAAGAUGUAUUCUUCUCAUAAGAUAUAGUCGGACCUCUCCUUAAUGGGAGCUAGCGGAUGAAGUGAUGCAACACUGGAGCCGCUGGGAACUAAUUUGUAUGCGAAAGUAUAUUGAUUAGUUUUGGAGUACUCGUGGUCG; details: 30 °C;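 further: selection with 25 µg/mL kanamycin versus none on LB agar overnight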
Entries annotated with measured self-splicing fitness (ln)
Kindly provide the number alone.

The following sequences have reported results that may help.
{"columns": ["sequenceChain", "self-splicing fitness (ln)"],
 "data": [
  ["CUGCAGCAAUAUUACGCCUG", -2.21],
  ["AGCCAGCAAUAUUACGAUGC", -3.79],
  ["UGGCAGCAAUAUUACGGCUG", -3.05],
  ["AGGGAGCAAUAUUACGGGGG", -2.67],
  ["ACCUAGCAAUAUUACGCACU", -0.127],
  ["CGUGAGCAAUAUUACGCUAG", -2.9],
  ["GUAGAGCAAUAUUACGCUGG", -1.56],
  ["ACCUAGCAAUAUUACGAGUC", -2.53]
]}

Given the sequence AUAUAGCAAUAUUACGGGUC , write its reported self-splicing fitness (ln).
-4.55

Kindly indicate its recorded self-splicing fitness (ln). Item: UAGGAGCAAUAUUACGAUAG
-4.07

====

experiment: self-splicing fitness, log relative to wild type (ln ratio); higher = more splicing; Tetrahymena group I intron in knt gene, E. coli kanamycin selection, DiMSum; sequences stand for … in CUCUCU…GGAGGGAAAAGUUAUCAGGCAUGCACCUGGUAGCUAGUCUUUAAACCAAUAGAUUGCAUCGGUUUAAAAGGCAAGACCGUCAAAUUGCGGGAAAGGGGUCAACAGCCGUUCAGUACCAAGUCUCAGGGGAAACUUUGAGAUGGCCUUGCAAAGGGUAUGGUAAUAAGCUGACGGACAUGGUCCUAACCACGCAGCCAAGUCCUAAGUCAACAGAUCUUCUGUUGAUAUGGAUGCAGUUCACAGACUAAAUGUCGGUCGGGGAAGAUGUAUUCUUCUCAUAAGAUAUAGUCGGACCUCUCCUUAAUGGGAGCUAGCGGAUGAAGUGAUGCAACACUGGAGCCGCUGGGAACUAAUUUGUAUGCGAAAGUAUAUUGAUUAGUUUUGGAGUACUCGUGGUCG; conditions: 37 °C
recordedEndpoint: self-splicing fitness (ln)
Format: numeric value only, no unit, no commentary.

// worked examples, self-splicing fitness (ln) included
{"columns": ["sequenceChain", "recordedEndpoint", "quantitativeResult"],
 "data": [
  ["UACCAGCAAUAUUACGGUUC", "self-splicing fitness (ln)", -1.38],
  ["GCACAGCAAUAUUACGUUGA", "self-splicing fitness (ln)", -0.158],
  ["AUUAAGCAAUAUUACGUAAC", "self-splicing fitness (ln)", -1.88],
  ["UACUAGCAAUAUUACGAGUC", "self-splicing fitness (ln)", -1.09],
  ["CACCAGCAAUAUUACGAAAG", "self-splicing fitness (ln)", -0.141],
  ["UGCAAGCAAUAUUACGGCUG", "self-splicing fitness (ln)", -1.14],
  ["GGUGAGCAAUAUUACGAUCG", "self-splicing fitness (ln)", 0.221],
  ["GUAGAGCAAUAUUACGUGCA", "self-splicing fitness (ln)", 0.541],
  ["CUACAGCAAUAUUACGAGCC", "self-splicing fitness (ln)", -1.88],
  ["GGCAAGCAAUAUUACGCUUC", "self-splicing fitness (ln)", -2.39]
]}

Please report self-splicing fitness (ln) for the following sequence: AUGAAGCAAUAUUACGUGAU
-0.839

Report measured self-splicing fitness (ln); entry is GUUGAGCAAUAUUACGGCCU
-0.897

Please give the documented self-splicing fitness (ln) of CAAUAGCAAUAUUACGGCAU
-1.32

Give self-splicing fitness (ln) for the following sequence: UCGAAGCAAUAUUACGUAAA
-0.804

Hello, please tell me recorded self-splicing fitness (ln) for this one: AGCCAGCAAUAUUACGAUGC
-0.986

Give the reported self-splicing fitness (ln) for this sequence. GUUGAGCAAUAUUACGCGAA
-1.9

Recall and state the measured self-splicing fitness (ln) for CCUAAGCAAUAUUACGUAGG .
-2.94

Return value of self-splicing fitness (ln) for input UGGAAGCAAUAUUACGCGCC , no commentary.
-1.54

Given AUGAAGCAAUAUUACGCUGA , respond with its self-splicing fitness (ln).
-1.24

Entry UUGCAGCAAUAUUACGUCCA needs its self-splicing fitness (ln) filled in; supply it.
0.00855
